target: BRAF G466V (Homo sapiens, UniProt P15056, G466V); construct: Horizon Discovery (HCT-116 BRAF−/− cells); host or cells: HCT-116 BRAF−/− cells, clone 8, lentiviral transduction; assay: BRAF HiBiT degradation assay, C-terminal HiBiT-tagged BRAF G466V overexpressed in HCT-116 BRAF−/− cells (clone 8), Nano-Glo HiBiT Lytic assay; type: cell-based; settings: BRAF G466V (Class 3), HCT-116 BRAF−/− cells; observed Dmax relative to DMSO control
Sequence (P15056 whole entry G466V): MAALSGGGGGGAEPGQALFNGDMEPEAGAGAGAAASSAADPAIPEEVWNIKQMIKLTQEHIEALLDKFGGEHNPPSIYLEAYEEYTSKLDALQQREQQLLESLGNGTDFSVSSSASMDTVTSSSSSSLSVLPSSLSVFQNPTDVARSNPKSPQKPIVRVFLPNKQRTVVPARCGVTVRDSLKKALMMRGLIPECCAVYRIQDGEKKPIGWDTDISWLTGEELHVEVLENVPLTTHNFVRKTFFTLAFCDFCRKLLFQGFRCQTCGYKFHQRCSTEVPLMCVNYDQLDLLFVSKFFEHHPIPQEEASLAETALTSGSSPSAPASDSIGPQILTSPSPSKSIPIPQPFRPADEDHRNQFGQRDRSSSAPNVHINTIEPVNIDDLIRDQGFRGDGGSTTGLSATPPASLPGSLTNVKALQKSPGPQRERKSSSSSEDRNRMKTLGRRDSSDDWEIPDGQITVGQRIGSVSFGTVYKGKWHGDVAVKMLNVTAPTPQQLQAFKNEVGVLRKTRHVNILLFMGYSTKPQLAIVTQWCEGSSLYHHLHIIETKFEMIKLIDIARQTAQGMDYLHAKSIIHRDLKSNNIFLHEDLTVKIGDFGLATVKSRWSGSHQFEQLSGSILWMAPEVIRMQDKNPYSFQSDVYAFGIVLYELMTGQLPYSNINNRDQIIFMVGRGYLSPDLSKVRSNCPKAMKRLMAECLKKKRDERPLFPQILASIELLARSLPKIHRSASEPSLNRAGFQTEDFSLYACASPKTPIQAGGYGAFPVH
Give Dmax for every item shown.

Data request: Reported Dmax for O=C1CC[C@H](c2ccc(N3CCC(CN4CCN(c5ccc(-n6cc(-c7cc(Cl)cc(NS(=O)(=O)N8CCCC8)c7F)c(-c7ccncc7)n6)cc5)CC4)CC3)nc2)C(=O)N1 : what is it?
Data returned: > 70%

Data request: So what's the measured Dmax for this one? CCCS(=O)(=O)Nc1cccc(-c2nc(C3CCC4(CC3)CCN(C(=O)C3CCN(c5ccc(C6CCC(=O)NC6=O)cn5)CC3)CC4)sc2-c2ccnc(N)n2)c1F (racemic)
Data returned: < 30%

Data request: Given CCCS(=O)(=O)Nc1cccc(-c2nc(C3CCN(C(=O)CC4CCN(C5CCN(c6ccc7c(c6)C(=O)N(C6CCC(=O)NC6=O)C7=O)CC5)CC4)CC3)sc2-c2ccnc(N)n2)c1F (racemic) , state its recorded Dmax.
Data returned: 30 to 70%

Data request: Dmax lookup needed for CCN(C)S(=O)(=O)Nc1cc(Cl)cc(-c2cn(-c3ccc(N4CCN(CC5CCN(c6ccc(C7CCC(=O)NC7=O)cn6)CC5)CC4)cn3)nc2-c2ccncc2)c1F (racemic) , thanks.
Data returned: > 70%

Data request: Param item = CCC(C)S(=O)(=O)Nc1cc(Cl)cc(-c2cn(-c3ccc(N4CCN(CC5CCN(c6ccc(N7CCC(=O)NC7=O)cc6)CC5)CC4)cc3)nc2-c2ccncc2)c1F (racemic) ; retrieve measured Dmax.
Data returned: > 70%

Data request: For CCCS(=O)(=O)Nc1cc(Cl)cc(-c2cn(-c3ccc(N4CCN(CC5CCN(c6ccc(C7CCC(=O)NC7=O)cn6)CC5)[C@H](C)C4)cc3)nc2-c2ccncc2)c1F (mixture of isomers) , what is its reported Dmax?
Data returned: > 70%

Hey, just so you know, these numbers are from patent US20260317324A1.
